# Assayed target: ER-α (Homo sapiens, UniProt P03372)
# Construct: endogenous in cells; host or cells: MCF-7
# Sequence (P03372 whole entry): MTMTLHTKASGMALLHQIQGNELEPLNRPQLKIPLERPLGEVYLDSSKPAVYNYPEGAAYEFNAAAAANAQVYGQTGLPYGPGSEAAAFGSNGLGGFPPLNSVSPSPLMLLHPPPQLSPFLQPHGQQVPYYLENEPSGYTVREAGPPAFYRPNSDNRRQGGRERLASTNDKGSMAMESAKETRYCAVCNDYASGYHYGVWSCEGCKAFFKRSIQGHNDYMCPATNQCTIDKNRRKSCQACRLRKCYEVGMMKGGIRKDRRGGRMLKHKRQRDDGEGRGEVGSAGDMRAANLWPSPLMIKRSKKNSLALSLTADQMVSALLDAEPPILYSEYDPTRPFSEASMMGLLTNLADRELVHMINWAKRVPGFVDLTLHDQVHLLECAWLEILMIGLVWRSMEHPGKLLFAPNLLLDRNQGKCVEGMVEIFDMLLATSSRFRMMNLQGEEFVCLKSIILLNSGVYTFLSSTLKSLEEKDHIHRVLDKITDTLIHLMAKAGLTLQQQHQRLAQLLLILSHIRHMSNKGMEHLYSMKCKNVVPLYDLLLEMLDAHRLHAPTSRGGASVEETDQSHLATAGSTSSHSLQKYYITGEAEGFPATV
# Test method notes: ER-α in Cell Western Assay (SP1)
# Format: cell-based
# Protocol conditions: MCF7; MCF-7 cells, SP1 rabbit monoclonal Ab, 4 or 24 hr post compound addition; read-out: ER In-Cell Western Assay (SP1); Max Response
Below: a set of entries, each annotated with reported Emax.

Molecule: C[C@@H]1CCN([C@@H](C)COc2ccc(C3c4ccc(O)c(F)c4CC3c3ccc(O)cc3)cc2)C1 (stereo partly shown)
Emax: ≥ 85%
--
Molecule: Oc1ccc(C2Cc3cc(O)ccc3C2c2ccc(OCCN3CCCC3)cc2)cc1 (stereo not shown)
Emax: 60 to 85%
--
Molecule: Oc1ccc2c(c1)CC(c1ccccc1)C2c1ccc(OCCN2CCCC2)cc1 (stereo not shown)
Emax: 60 to 85%
--
Molecule: C[C@@H]1CCN([C@@H](C)COc2ccc(C3c4ccc(O)cc4CC3c3cccc(O)c3)cc2)C1 (stereo partly shown)
Emax: ≥ 85%

Values compiled from patent US8853423B2.
